These entries and their values trace back to paper PMC7995636.

Bovine brain tubulin (Bos taurus, UniProt Q6B856) data, read-out IC50
Sequence (Q6B856 whole entry): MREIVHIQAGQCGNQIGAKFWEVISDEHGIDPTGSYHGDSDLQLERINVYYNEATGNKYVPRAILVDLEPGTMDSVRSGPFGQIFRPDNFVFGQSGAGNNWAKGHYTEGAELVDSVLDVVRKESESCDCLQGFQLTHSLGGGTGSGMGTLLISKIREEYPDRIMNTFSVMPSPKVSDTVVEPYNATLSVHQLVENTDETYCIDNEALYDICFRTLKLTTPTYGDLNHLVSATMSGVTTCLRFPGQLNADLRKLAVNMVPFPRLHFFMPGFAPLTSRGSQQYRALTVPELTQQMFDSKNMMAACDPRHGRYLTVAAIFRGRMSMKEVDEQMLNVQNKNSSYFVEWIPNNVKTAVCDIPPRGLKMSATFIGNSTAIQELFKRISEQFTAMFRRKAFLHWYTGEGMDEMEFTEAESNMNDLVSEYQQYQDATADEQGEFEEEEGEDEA
Sequence (P81947 whole entry partner): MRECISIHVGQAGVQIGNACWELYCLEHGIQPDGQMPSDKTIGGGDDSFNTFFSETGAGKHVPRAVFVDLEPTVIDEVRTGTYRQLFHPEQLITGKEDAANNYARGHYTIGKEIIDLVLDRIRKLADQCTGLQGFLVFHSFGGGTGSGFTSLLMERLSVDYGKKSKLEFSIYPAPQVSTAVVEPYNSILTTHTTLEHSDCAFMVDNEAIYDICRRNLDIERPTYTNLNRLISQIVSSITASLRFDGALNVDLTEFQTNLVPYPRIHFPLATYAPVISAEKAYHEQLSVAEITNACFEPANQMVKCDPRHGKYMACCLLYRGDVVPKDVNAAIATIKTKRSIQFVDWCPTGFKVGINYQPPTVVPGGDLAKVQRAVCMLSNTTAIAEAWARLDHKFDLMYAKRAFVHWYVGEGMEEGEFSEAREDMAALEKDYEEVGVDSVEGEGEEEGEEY
Answer format: numeric, nM implied, no suffix.

Entry COc1ccc(N(C)c2nc(Cl)nc3ccccc23)cc1 ; assay system Bovine brain tubulin (Bos taurus, UniProt Q6B856); IC50 recorded at 470

IC50 on Bovine brain tubulin (Bos taurus, UniProt Q6B856) for COc1cccc2cc(N(C)c3nc(C)nc4ccccc34)ccc12 is 640

# CSc1ccc(N(C)c2nc(C)nc3ccccc23)cc1 with Bovine brain tubulin (Bos taurus, UniProt Q6B856): IC50 is 480
